# Test System: BmoR A117T/F163Y (Thauera butanivorans, UniProt A7MAQ9, A117T/F163Y)
# Construct: full-length BmoR, biosensor plasmid pWT-A117T/F163Y (PbmoR-bmoR; Pbmo-gfp)
# Sequence (A7MAQ9 entry or part of it A117T/F163Y): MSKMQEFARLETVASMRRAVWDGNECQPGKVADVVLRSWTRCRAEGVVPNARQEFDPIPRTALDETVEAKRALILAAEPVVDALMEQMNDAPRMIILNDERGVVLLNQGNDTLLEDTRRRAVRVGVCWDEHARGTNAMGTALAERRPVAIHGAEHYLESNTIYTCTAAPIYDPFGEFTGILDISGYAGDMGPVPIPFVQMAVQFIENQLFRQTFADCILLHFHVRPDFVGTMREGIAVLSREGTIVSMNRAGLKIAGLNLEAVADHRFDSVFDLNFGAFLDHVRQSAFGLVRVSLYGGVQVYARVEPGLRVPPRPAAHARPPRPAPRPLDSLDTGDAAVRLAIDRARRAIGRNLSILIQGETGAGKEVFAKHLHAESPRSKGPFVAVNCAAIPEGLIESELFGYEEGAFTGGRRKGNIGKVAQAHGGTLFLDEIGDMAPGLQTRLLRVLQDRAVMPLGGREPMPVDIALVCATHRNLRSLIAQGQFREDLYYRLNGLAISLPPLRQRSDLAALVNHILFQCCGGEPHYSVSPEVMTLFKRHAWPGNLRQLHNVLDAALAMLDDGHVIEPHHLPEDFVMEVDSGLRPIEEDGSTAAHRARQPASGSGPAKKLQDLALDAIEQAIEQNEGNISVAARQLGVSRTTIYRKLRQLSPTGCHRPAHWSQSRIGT
# Protocol Details: cell-based
# Settings: n = 3; read-out: Apparent Km
pEC50: −log10 of the molar value.
Value Type: pEC50

| Input Smiles | Value Type | Value Measured |
| --- | --- | --- |
| CCCCCO | pEC50 | 1.23 |
| CC(C)CO | pEC50 | 1.65 |

====

# Test System: BmoR M94V/A117T/F163Y/F272L (fusion with sfGFP) (Thauera butanivorans, UniProt A7MAQ9, A117T/F163Y/F272L/M94V)
# Construct: SUMO-BmoR-TEV-sfGFP-His fusion, E. coli BL21(DE3) lysate supernatant
# Sequence (A7MAQ9 entry or part of it M94V/A117T/F163Y/F272L): as the sequence (A7MAQ9 entry or part of it A117T/F163Y) above, with M94V, F272L counted along it
# Protocol Details: MicroScale Thermophoresis of sfGFP-fused BmoR in E. coli BL21(DE3) lysate supernatant, 16-point ligand dilution in assay buffer with 1 % DMSO, incubated at 37 °C for 15 min.
# Settings: n = 3

| Compound | Kd [µM] |
| --- | --- |
| CCCCCO [n-Pentanol, 1-pentanol] | 322 |

====

# Test System: BmoR M94V/W128R/F272L (fusion with sfGFP) (Thauera butanivorans, UniProt A7MAQ9, F272L/M94V/W128R)
# Construct: SUMO-BmoR-TEV-sfGFP-His fusion, E. coli BL21(DE3) lysate supernatant
# Protocol Details: MicroScale Thermophoresis of sfGFP-fused BmoR in E. coli BL21(DE3) lysate supernatant, 16-point ligand dilution in assay buffer with 1 % DMSO, incubated at 37 °C for 15 min.
# Settings: n = 3

| Input Smiles | Unit Abbreviation | Kd |
| --- | --- | --- |
| CC(C)CCO | nM | 26.1 |

====

# Test System: BmoR WT (fusion with sfGFP) (Thauera butanivorans)
# Construct: SUMO-BmoR-TEV-sfGFP-His fusion, E. coli BL21(DE3) lysate supernatant
# Sequence (A7MAQ9 1-669): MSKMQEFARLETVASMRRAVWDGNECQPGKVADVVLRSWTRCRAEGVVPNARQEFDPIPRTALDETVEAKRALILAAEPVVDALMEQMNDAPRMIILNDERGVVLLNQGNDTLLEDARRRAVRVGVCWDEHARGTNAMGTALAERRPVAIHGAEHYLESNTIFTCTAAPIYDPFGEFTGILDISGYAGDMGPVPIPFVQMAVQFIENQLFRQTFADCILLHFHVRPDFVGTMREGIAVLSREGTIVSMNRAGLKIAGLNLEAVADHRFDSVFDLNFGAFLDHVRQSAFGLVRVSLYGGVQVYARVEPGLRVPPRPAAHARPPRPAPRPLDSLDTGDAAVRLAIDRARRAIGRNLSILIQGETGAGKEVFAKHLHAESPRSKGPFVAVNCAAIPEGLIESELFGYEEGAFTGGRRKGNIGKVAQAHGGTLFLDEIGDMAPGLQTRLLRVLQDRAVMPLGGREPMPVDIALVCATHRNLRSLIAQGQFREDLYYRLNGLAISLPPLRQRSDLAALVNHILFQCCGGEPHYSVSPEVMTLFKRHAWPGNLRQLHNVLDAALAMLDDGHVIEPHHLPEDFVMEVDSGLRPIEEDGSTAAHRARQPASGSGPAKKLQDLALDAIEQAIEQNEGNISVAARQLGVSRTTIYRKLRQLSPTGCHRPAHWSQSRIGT
# Protocol Details: MicroScale Thermophoresis of sfGFP-fused BmoR in E. coli BL21(DE3) lysate supernatant, 16-point ligand dilution in assay buffer with 1 % DMSO, incubated at 37 °C for 15 min.
# Type: binding
# Settings: n = 3
Overview of recorded Kd for various molecules
Value Type: Kd

| Molecule | Test System | Value Measured |
| --- | --- | --- |
| CCCCCO [n-Pentanol, 1-pentanol] | BmoR WT (fusion with sfGFP) (Thauera butanivorans) | 106 nM |
| CC(C)CO [Isobutanol, 2-methyl-1-propanol] | BmoR WT (fusion with sfGFP) (Thauera butanivorans) | 11800 nM |
| CC(C)CCO [Isopentanol, 3-methyl-1-butanol] | BmoR WT (fusion with sfGFP) (Thauera butanivorans) | 93.8 nM |

====

Entries and their measured pEC50 follow.
# Test System: BmoR W128R (Thauera butanivorans, UniProt A7MAQ9, W128R)
# Construct: full-length BmoR, biosensor plasmid pWT-W128R (PbmoR-bmoR; Pbmo-gfp)
# Sequence (A7MAQ9 entry or part of it W128R): as the sequence (A7MAQ9 1-669) above, with W128R counted along it
# Protocol Details: Whole-cell BmoR biosensor dose-response (GFP/OD600, Pbmo-gfp reporter) in 96-deep-well plates with 0-60 mM pentanols or 0-100 mM butanols, LB medium at 30 °C, fitted to the Michaelis-Menten equation.
# Settings: n = 3; read-out: Apparent Km
pEC50: −log10 of the molar value.

| Input Smiles | pEC50 |
| --- | --- |
| CC(C)CO | 1.20 |
| CC(C)CCO | 1.24 |
